Data origin, for the record: PubChem BioAssay AID1508625

# measurement description: small molecules boosting NK-mediated OVCAR3 lysis – imaging, primary NK cells, calcein-AM imaging, primary screen (AID 1508625);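 further: compound given to NK cells 16 h before adding targets at 1.5 to 1 ratio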;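 on Z-score: more negative robust z means stronger NK killing of tumor cells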
# experimental context: OVCAR3 lysis by primary NK cells, at 5 µM; measured here: robust Z-score, single-point normalisation
Answer false if z-score is under -1, and true if it is -1 or more.

Study these solved cases before continuing.
Query block: Has O=C(COc1ccccc1Br)NN=Cc1ccccc1Br a recorded z-score greater than or equal to -1?
Result block: false

Query block: Has COCCNC(=O)c1cc2cc3ccc(Cl)cc3nc2o1 a recorded z-score greater than or equal to -1?
Result block: true

Query block: Has CCN(CC)c1ccc(C=NS(=O)(=O)c2ccc(C)cc2)cc1 a recorded z-score greater than or equal to -1?
Result block: false

Query block: Has COC(=O)c1ccc(COC(=O)c2ccccc2Cl)cc1 a recorded z-score greater than or equal to -1?
Result block: false

Query block: Has Cc1cccn2c(=O)c3cc(C(=O)N(CC(C)C)CC(C)C)sc3nc12 a recorded z-score greater than or equal to -1?
Result block: false

Query block: Has CC(=O)SCCC(=O)N1C(C)CCCC1C(=O)O (configuration not stated) a recorded z-score greater than or equal to -1?
Result block: false

Query block: Has CCSc1ccc(NC(=O)CC2c3ccccc3Oc3ccccc32)cc1 a recorded z-score greater than or equal to -1?
Result block: false

Query block: Has CCOc1ccc(-n2c(SCC(=O)Nc3ccc(C)cc3)nc3c([nH]c4ccccc43)c2=O)cc1 a recorded z-score greater than or equal to -1?
Result block: false

Query block: Has O=C(NN=Cc1ccncc1)c1n[nH]c2c1CCC2 a recorded z-score greater than or equal to -1?
Result block: true

Query block: Has CC(=O)c1ccc(NC(=O)c2ccc(N)cc2)cc1 a recorded z-score greater than or equal to -1?
Result block: false

***
Query block: Has COc1ccc2ccccc2c1C=Nc1cc(C)ccc1C a recorded z-score greater than or equal to -1?
Result block: true

Query block: Has CCOc1ccc(C2C(N3C(=O)c4cccc([N+](=O)[O-])c4C3=O)C(=O)N2c2cc(Cl)ccc2C)cc1 (configuration not stated) a recorded z-score greater than or equal to -1?
Result block: false

====

# measurement description: small molecules boosting NK-mediated OVCAR3 lysis – imaging, primary NK cells, calcein-AM imaging, primary screen (AID 1508625);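 further: compound given to NK cells 16 h before adding targets at 1.5 to 1 ratio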
# experimental context: OVCAR3 lysis by primary NK cells, at 5 µM
measured endpoint: corrected activity, negative = more killing (%)
Report the figure in % without appending any unit label.

Examples with answers:
Query block: Answer with the recorded corrected activity, negative = more killing for the molecule listed here: O=C(CCCC(=O)Nc1cccc(Cl)c1)Nc1cccc(Cl)c1
Result block: -2.22

Query block: Answer with the recorded corrected activity, negative = more killing for the molecule listed here: CCOc1ccc(OCC)c(NC(=O)C2(S(=O)(=O)c3ccc(Cl)cc3)CC2)c1
Result block: -4.65

Query block: Answer with the recorded corrected activity, negative = more killing for the molecule listed here: C=CCSc1nc(C)c2cc(C)ccc2n1
Result block: -2.18

Query block: Answer with the recorded corrected activity, negative = more killing for the molecule listed here: CCN1CCN(C(=O)C2c3ccccc3C(=O)N(C)C2c2cccs2)CC1 (stereo unspecified)
Result block: -7.01

Query block: Answer with the recorded corrected activity, negative = more killing for the molecule listed here: Cc1cc(N2CCN(C(=O)c3cccc(F)c3F)CC2)c(F)cc1[N+](=O)[O-]
Result block: -4.4

Query block: Answer with the recorded corrected activity, negative = more killing for the molecule listed here: CC(C)C(NC(=O)C12CC3CC(CC(C3)C1)C2)C(=O)NC1=NCCS1 (stereo unspecified)
Result block: 1.64

Query block: Answer with the recorded corrected activity, negative = more killing for the molecule listed here: CCCCNCC(=O)Nc1ccc(Br)cc1
Result block: -5.05

Query block: Answer with the recorded corrected activity, negative = more killing for the molecule listed here: COc1ccc(C(=O)Nc2ccc3oc(-c4ccccc4)nc3c2)cc1OC
Result block: -2.95

***
Query block: Answer with the recorded corrected activity, negative = more killing for the molecule listed here: CC(=O)OC1CC(C)N(C(=O)c2ccccc2)c2ccc(C)cc21 (stereo unspecified)
Result block: -5.57

====

# measurement description: small molecules boosting NK-mediated OVCAR3 lysis – imaging, primary NK cells, calcein-AM imaging, primary screen (AID 1508625);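 further: compound given to NK cells 16 h before adding targets at 1.5 to 1 ratio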;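 on Z-score: more negative robust z means stronger NK killing of tumor cells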
# experimental context: OVCAR3 lysis by primary NK cells, at 5 µM; measured here: robust Z-score, single-point normalisation
Overview of recorded z-score for various molecules
# answer = number (no unit)

Examples with answers:
Query block: Answer with the recorded z-score for the molecule listed here: Cc1c(N=Cc2c[nH]c3ccccc23)cccc1[N+](=O)[O-]
Result block: -0.872

Query block: Answer with the recorded z-score for the molecule listed here: O=C1c2ccccc2C(=O)N1C1C(=O)N(c2cccc(C(F)(F)F)c2)C1c1ccc(F)cc1 (stereo not drawn)
Result block: -0.397

Query block: Answer with the recorded z-score for the molecule listed here: Cc1ccc(OCCNC(=O)C2CCCCC2)cc1
Result block: -2.59

Query block: Answer with the recorded z-score for the molecule listed here: O=S(=O)(c1ccc(Br)c2nsnc12)N1CCC(Cc2ccccc2)CC1
Result block: -1.06

***
Query block: Answer with the recorded z-score for the molecule listed here: O=C(c1cccc(F)c1)N1CCN=C1SCc1ccc(Br)cc1
Result block: -1.2

Query block: Answer with the recorded z-score for the molecule listed here: COC(=O)c1cc(Cl)c(NC(=O)c2cc3ccccc3oc2=O)cc1OC
Result block: -0.79

====

# measurement description: small molecules boosting NK-mediated OVCAR3 lysis – imaging, primary NK cells, calcein-AM imaging, primary screen (AID 1508625);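 further: compound given to NK cells 16 h before adding targets at 1.5 to 1 ratio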;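 on Z-score: more negative robust z means stronger NK killing of tumor cells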
# experimental context: OVCAR3 lysis by primary NK cells, at 5 µM; measured here: robust Z-score, single-point normalisation
Returns: string. Value is class 1 if measured z-score is below -1, and class 0 if it is greater than or equal to it.

Study these solved cases before continuing.
Query block: Problem: For the molecule COC(=O)c1ccc(CN2CCN3CCCC3C2C2CCCCC2)cc1 (configuration not stated) , is z-score under -1?
Result block: class 1

Query block: Problem: For the molecule CCCCOc1ccccc1C1NC(=O)NC(C)=C1C(=O)OCC(F)(F)F (configuration not stated) , is z-score under -1?
Result block: class 1

***
Query block: Problem: For the molecule O=C(c1ccc(COCC(F)(F)F)o1)N1CCCCCC1 , is z-score under -1?
Result block: class 1

Query block: Problem: For the molecule O=C(Nc1ccc(Br)cc1)c1ccccc1I , is z-score under -1?
Result block: class 0

Query block: Problem: For the molecule CCc1ccc(NC(=O)c2ccccc2NC(=O)c2cccc(OC)c2)cc1 , is z-score under -1?
Result block: class 0

====

Overview of recorded corrected activity, negative = more killing for various molecules
# measurement description: small molecules boosting NK-mediated OVCAR3 lysis – imaging, primary NK cells, calcein-AM imaging, primary screen (AID 1508625);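 further: compound given to NK cells 16 h before adding targets at 1.5 to 1 ratio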
# experimental context: OVCAR3 lysis by primary NK cells, at 5 µM
Report the figure in % without appending any unit label.

Examples with answers:
Query block: Answer with the recorded corrected activity, negative = more killing for the molecule listed here: O=[N+]([O-])c1cccc(CN2CCN3CCCC3C2C2CCCCC2)c1 (stereo unspecified)
Result block: 0.41

Query block: Answer with the recorded corrected activity, negative = more killing for the molecule listed here: CC(C)NC1CCCc2c1[nH]c1ccc([N+](=O)[O-])cc21 (stereo unspecified)
Result block: -0.558

Query block: Answer with the recorded corrected activity, negative = more killing for the molecule listed here: COc1ccccc1OCC(=O)N=Nc1c(O)[nH]c2c(C)cc(Br)cc12
Result block: -2.87

***
Query block: Answer with the recorded corrected activity, negative = more killing for the molecule listed here: CC1=NN(C(=O)C(C)C)C(O)(c2ccccc2)C1 (stereo unspecified)
Result block: -7.14

Query block: Answer with the recorded corrected activity, negative = more killing for the molecule listed here: N#Cc1cc2c(N)c(C(=O)Nc3ccccc3Oc3ccccc3)sc2nc1N
Result block: 0.0831

Query block: Answer with the recorded corrected activity, negative = more killing for the molecule listed here: CCOc1ccc(N2CC(C(=O)Nc3cc(C)ccn3)CC2=O)cc1 (stereo unspecified)
Result block: -3.29

Query block: Answer with the recorded corrected activity, negative = more killing for the molecule listed here: Cc1nc2sccn2c1C(=O)NN=Cc1ccc(C(C)C)cc1
Result block: -4.02

Query block: Answer with the recorded corrected activity, negative = more killing for the molecule listed here: Cc1cc2nc3sc(=Cc4ccc(Cl)cc4Cl)c(=O)n3c2cc1C
Result block: -1.46

Query block: Answer with the recorded corrected activity, negative = more killing for the molecule listed here: Cn1c(SCc2c[nH]c3cc([N+](=O)[O-])ccc23)nc2sc3c(c2c1=O)CCCC3
Result block: -1.25

Query block: Answer with the recorded corrected activity, negative = more killing for the molecule listed here: CCCCC1(CC(=O)N2CCOCC2)C(=O)N(c2ccccc2)N(c2ccccc2)C1=O
Result block: -2.63

Query block: Answer with the recorded corrected activity, negative = more killing for the molecule listed here: Cc1ccccc1OCC(=O)N1N=C2CCCCC2C1(O)C(F)(F)F (stereo unspecified)
Result block: -5.48

Query block: Answer with the recorded corrected activity, negative = more killing for the molecule listed here: CC(=O)Nc1ncc(Br)cc1[N+](=O)[O-]
Result block: -1.26

Query block: Answer with the recorded corrected activity, negative = more killing for the molecule listed here: CC1CC(C)CN(C(=O)c2c[nH]c3ccc(S(=O)(=O)N4CCOCC4)cc3c2=O)C1 (stereo unspecified)
Result block: -2.85

Query block: Answer with the recorded corrected activity, negative = more killing for the molecule listed here: CN(Cc1ccccc1)Cc1c(O)ccc2c(=O)c(Oc3ccccc3Br)c(C(F)(F)F)oc12
Result block: 2.2

Query block: Answer with the recorded corrected activity, negative = more killing for the molecule listed here: COc1cccc(NS(=O)(=O)c2ccc3c(c2)[C@H]2C=CC[C@H]2[C@@H](c2ccccc2Cl)N3)c1
Result block: -8.83

Query block: Answer with the recorded corrected activity, negative = more killing for the molecule listed here: Cc1cc(C)cc(NC(=O)c2ccccc2OCC(=O)N2CCc3ccccc32)c1
Result block: -2.33

Query block: Answer with the recorded corrected activity, negative = more killing for the molecule listed here: CCOC(=O)c1sc(N2C(=O)C(=O)C(=C(O)c3ccccc3)C2c2ccc(C(C)(C)C)cc2)nc1C (stereo unspecified)
Result block: -1.11

Query block: Answer with the recorded corrected activity, negative = more killing for the molecule listed here: O=C(Nc1ccc(N2CCN(Cc3ccccc3Cl)CC2)cc1)c1ccco1
Result block: 1.61

Query block: Answer with the recorded corrected activity, negative = more killing for the molecule listed here: Cc1ccc(S(=O)(=O)NCc2cc(-c3nn(C)c(=O)c4ccccc34)ccc2C)cc1
Result block: -2.25

Query block: Answer with the recorded corrected activity, negative = more killing for the molecule listed here: COc1cccc(C(=O)N2CCN(C(=O)c3ccccc3OC)CC2)c1
Result block: -2.57

Query block: Answer with the recorded corrected activity, negative = more killing for the molecule listed here: CCOc1ccc(Br)cc1S(=O)(=O)N1CCN(c2ccc(C)cc2C)CC1
Result block: -1.21
